test system: HCC-2998 colon; assay: NCI-60 one-dose screen, 48 h; conditions: 10 µM unless noted
About 83,000 compounds went through this panel and 20% of them were active in at least one assay; those are over-represented in the sample as a whole. Active and inactive are the calls of the source. How the source made its calls: active means growth percent below 10; inactive means the rest.
Respond only with the outcome that fits, drawn from active, inactive

[in] What outcome does the record of this test show for Cc1ccc(C(=O)CSc2nc3ccc(F)cc3c(=O)n2-c2ccc(Cl)cc2)cc1 ?
[out] inactive

[in] What outcome does the record of this test show for Nc1cccc(SCc2cc3ccccc3[nH]c2=O)c1 ?
[out] inactive

[in] What outcome does the record of this test show for COc1ccc(-c2ccnc(SCc3cc4ccccc4[nH]c3=O)n2)cc1 ?
[out] inactive

[in] What outcome does the record of this test show for CC1(C)CC[C@]2(C(=O)O)CC[C@]3(C)C(=CCC4[C@@]5(C)C[C@@H](O)[C@@H]6OC(c7cccc(Br)c7)OC[C@@]6(C)C5CC[C@]43C)C2C1 (some centres undefined) ?
[out] inactive

[in] What outcome does the record of this test show for C/C(=N\N=C\c1cc([N+](=O)[O-])ccc1Cl)c1ccc2c(c1)Nc1ccccc1S2 ?
[out] inactive

[in] What outcome does the record of this test show for COc1cc(CNC(=O)/C=C/c2ccc3c(c2)OCO3)ccc1OCc1cn(-c2cccc(C(F)(F)F)c2)nn1 ?
[out] active

[in] What outcome does the record of this test show for CSc1ccc(C(=O)Nc2ccc3nn(/C(C#N)=C/c4ccccn4)nc3c2)cc1 ?
[out] active

[in] What outcome does the record of this test show for CN1CCN(/C(=N\c2sc(-c3ccccc3)nc2-c2ccccc2)c2ccccc2)CC1 ?
[out] inactive

[in] What outcome does the record of this test show for Nc1cc2ccccc2c(=O)n1NC(=O)c1ccc(I)cc1 ?
[out] inactive

----------
test system: SK-MEL-2 melanoma; assay: NCI-60 one-dose screen, 48 h (100 = growth as untreated, 0 = no growth, -100 = all killed); conditions: 10 µM unless noted
This is part of a sample that, as a whole, favours compounds with a hit. Of some 83,000 tested, about 20% had one in any assay.
Think of 40% as a floor: if growth stands on it or above, it is fulfilled; beneath it, not fulfilled.

[in] growth >= 40% for CC(C)c1ccc2c(N)c(C(=O)Nc3cccc(C(F)(F)F)c3)sc2n1 ?
[out] fulfilled

[in] growth >= 40% for COc1ccc2c(c1)c(-c1cc3nc(-c4cn(C)c5ncc(Br)cc45)cc(N)n3n1)cn2C ?
[out] not fulfilled

[in] growth >= 40% for Cn1cc(-c2cc(N)n3nc(-c4cn(C)c5ncccc45)cc3n2)c2cccnc21 ?
[out] fulfilled

[in] growth >= 40% for N/C(=N\c1nc2ccccc2s1)NC(=O)Nc1ccc(Cl)cc1Cl ?
[out] not fulfilled

[in] growth >= 40% for NS(=O)(=O)c1ccc(N=Nc2c(O)n(CC(=O)Nc3ccccc3)c3ccccc23)cc1 ?
[out] fulfilled

[in] growth >= 40% for CC(/C=C1\SC(=S)N(CCCC(=O)NC(CC(C)C)C(=O)O)C1=O)=C\c1ccccc1 (centres undefined) ?
[out] fulfilled

[in] growth >= 40% for O=C1N/C(=N\c2nccs2)S/C1=C\C=C/c1ccccc1 ?
[out] not fulfilled

[in] growth >= 40% for CCOC(=O)/C=C/c1cccc2c1C(=O)NC(C)(c1cc3cc(Cl)ccc3oc1=O)N2 (centres undefined) ?
[out] not fulfilled

[in] growth >= 40% for OCNc1ccc(-n2cnc3cc(-c4ccc(O)cc4)ccc32)cc1C(F)(F)F ?
[out] not fulfilled

[in] growth >= 40% for O=c1[nH]c2ccccc2cc1CSc1cccc(Nc2nccc(-c3ccc4ccccc4c3)n2)c1 ?
[out] fulfilled

[in] growth >= 40% for CN(C)c1nc(NCCNS(=O)(=O)c2ccc(C(=O)/C=C/c3ccc(F)cc3)cc2)nc(Nc2ccc(F)cc2)n1 ?
[out] not fulfilled

[in] growth >= 40% for Brc1ccc(N/N=C/c2c[nH]c3ccc(Br)cc23)nc1 ?
[out] not fulfilled

[in] growth >= 40% for COc1ccc(C(=O)/C=C/c2ccc3ccccc3c2)cc1S(N)(=O)=O ?
[out] fulfilled

[in] growth >= 40% for CC1=C(C(=O)c2ccccc2)C(c2ccc(-n3cncn3)cc2)n2c(nc3ccccc32)N1 (centres undefined) ?
[out] fulfilled

[in] growth >= 40% for COc1cc(/C=C/C(=O)c2nnn(-c3ccc(Cl)cc3)c2C)cc(OC)c1OC ?
[out] fulfilled

[in] growth >= 40% for C/C(=N\Nc1ccc(S(N)(=O)=O)cc1)c1ccc(N=Nc2c(Nc3ccccc3)[nH][nH]c2=O)cc1 ?
[out] not fulfilled

[in] growth >= 40% for CC1(C)CC[C@]2(C(=O)O)CC[C@]3(C)C(=CCC4[C@@]5(C)C[C@@H](O)[C@@H]6OC(c7ccco7)OC[C@@]6(C)C5CC[C@]43C)C2C1 (some centres undefined) ?
[out] not fulfilled

[in] growth >= 40% for CCCCOc1ccc(NC(=O)c2sc3nc(C)ccc3c2N)cc1 ?
[out] fulfilled

[in] growth >= 40% for C#CCOc1ccc(/C=N/Nc2nc(-c3cc4cc(Br)ccc4oc3=O)cs2)cc1OC ?
[out] fulfilled

----------
tested on: OVCAR-8 ovarian; assay: NCI-60 one-dose screen, 48 h (100 = growth as untreated, 0 = no growth, -100 = all killed); details: 10 µM unless noted
Compounds without any hit were thinned out: in the full panel of roughly 83,000, 20% have a hit.
assay_endpoint: growth (%)
Unit % implied. Number only.

# compound O=C(/C=C/Nc1ccc2oc(=O)ccc2c1)c1cc2cc(Br)ccc2oc1=O ; its growth = 104

# compound Cc1cccc(-c2nc(Nc3cccc(S(N)(=O)=O)c3)c3ccccc3n2)c1 ; its growth = 2.28

# compound COc1ccc(C(=O)/C=C/c2ccc(OCc3ccc(F)cc3)c(OC)c2)cc1OC ; its growth = -7.27

# compound Cc1cc2nc3c4ccccc4n(CCNCCN(C)C)c3nc2cc1C ; its growth = 24.2

# compound COc1cccc(/C=C/C(=O)c2ccc(OC)c(S(N)(=O)=O)c2)c1 ; its growth = 10.5

# compound COc1ccc2oc3c4[nH]c5ccccc5c4c4c(c3c2c1)C(=O)N(C(=O)OC(C)(C)C)C4=O ; its growth = -20.1

# compound COc1ccc(-c2nc3cc(C)ccc3n2CC(=O)N=Nc2c(O)[nH]c3ccc(Cl)cc23)cc1 ; its growth = -74.8

# compound CC(=O)Nc1ccc(C(=O)NC(=S)Nc2ccc(S(N)(=O)=O)cc2)cc1 ; its growth = 94.6

# compound O=c1cc(-c2ccccc2)oc2cc(OCCCC[P+](c3ccccc3)(c3ccccc3)c3ccccc3)cc(O)c12 ; its growth = -61.1

# compound COc1ccc(C(SCCNCc2cc(N(C)C)ccn2)(c2ccccc2)c2ccccc2)cc1 ; its growth = -5.35

# compound CCN(CC)c1ccc(/C=N/Nc2nc(-c3ccc(C)cc3)cs2)c(O)c1 ; its growth = 86.8

# compound Cc1ccc(NCC(=O)Cn2cc(COc3ccc(C=Nc4cnc5ccccc5c4)cc3)nn2)cc1 ; its growth = 103

# compound COc1ccc(C(=O)/C=C/c2cccnc2)cc1S(N)(=O)=O ; its growth = 17.6

# compound CC1(C)CC[C@]2(C(=O)O)CC[C@]3(C)C(=CCC4[C@@]5(C)C[C@@H](O)[C@@H]6OC(c7ccccc7F)OC[C@@]6(C)C5CC[C@]43C)C2C1 (some centres undefined) ; its growth = 12

# compound COc1cc2oc(-c3cccc(C(=O)Nc4ccc(Cl)cc4)c3)cc(=O)c2c(OCCNC(=O)[C@@H](N)CCC(=O)O)c1OC ; its growth = 73.7

# compound COc1ccc(-c2nnc3ccc(N/N=C/c4ccc(C)cc4)nn23)cc1 ; its growth = 41.4

# compound CCN(CC)c1ccc(/C=N/Nc2nc(-c3ccc(Br)cc3)cs2)c(O)c1 ; its growth = 81.6

# compound COc1cc2oc(-c3cccc(C(=O)Nc4ccc(Cl)cc4)c3)cc(=O)c2c(OCCNC(=O)[C@H](CO)NC(=O)OC(C)(C)C)c1OC ; its growth = 18.3

# compound O=c1oc2ccc(Br)cc2cc1C1=CSc2nc3sc4c(c3c(=O)n2N=C1)CCCC4 ; its growth = 99.9

----------
tested on: KM12 colon; assay: NCI-60 one-dose screen, 48 h; conditions: 10 µM unless noted
This is part of a sample that, as a whole, favours compounds with a hit. Of some 83,000 tested, about 20% had one in any assay. Activity calls are given as the source filed them. Rule for the calls: active = growth percent below 10; inactive = the rest.
Respond only with the outcome that fits, drawn from active, inactive

[in] What outcome does the record of this test show for S=C(Nc1ccc(OCc2nc3ccccc3[nH]2)cc1)NC1CCCCC1 ?
[out] inactive

[in] What outcome does the record of this test show for Cn1cc(-c2nc(N)nnc2-c2c[nH]c3ccc(F)cc23)c2cc(Br)cnc21 ?
[out] active

[in] What outcome does the record of this test show for COc1ccc(-c2nc3cc(C)ccc3n2CC(=O)N=Nc2c(O)[nH]c3ccc(OC)cc23)cc1 ?
[out] active

[in] What outcome does the record of this test show for O=C(COc1ccc2c(c1)CCCC(=O)N2)NCc1ccccc1 ?
[out] inactive

[in] What outcome does the record of this test show for COc1cc2c(c(OC)c1OC)C(=O)CC(c1cccc(NC(=O)c3cccc([N+](=O)[O-])c3)c1)O2 (centres undefined) ?
[out] active

[in] What outcome does the record of this test show for CSc1ccc(NC(=O)c2ccc3nn(/C(C#N)=C/c4ccccn4)nc3c2)cc1 ?
[out] active

[in] What outcome does the record of this test show for COc1ccc2[nH]cc(-c3nnc(N)nc3-c3c[nH]c4ncc(Br)cc34)c2c1 ?
[out] inactive

[in] What outcome does the record of this test show for COc1ccc(/C=C/c2nc3ccccc3n3c(-c4ccc(Cl)cc4)nnc23)cc1 ?
[out] inactive

[in] What outcome does the record of this test show for C=C1CC[C@@H]2[C@]3(C)COC(c4cn[nH]c4-c4cccc(Br)c4)O[C@@H]3CC[C@@]2(C)[C@@H]1C/C=C1/C(=O)OCC1O (some centres undefined) ?
[out] active
